half-life listing for selected compounds.
assay_remarks: Rat 28-day toxicokinetics
Assay type: in vivo
condition_description: Sprague Dawley (Crl:CD (SD)IGS BR), plasma, po, 800 mg/kg/day, Day 28, male, read-out: apparent terminal half-life (converted)
Field format: number, assumed h, no unit text.

| compound | unit_abbreviation | half-life |
| --- | --- | --- |
| Cn1c([N+](=O)[O-])cnc1COc1ccc([S+](C)[O-])cc1 (stereo not drawn) [Fexinidazole sulfoxide] | h | 6.6 |

Value lookup for half-life; key = CSc1ccc(OCc2ncc([N+](=O)[O-])n2C)cc1
11

Value lookup for half-life; key = Cn1c([N+](=O)[O-])cnc1COc1ccc(S(C)(=O)=O)cc1
10

* * *

assay_remarks: in vitro
condition_description: human, Caco-2, pH 7.4, Percent Recovery A→B
parameter_measured: recovery at 2 h, 5 µM (%)
Field format: number, assumed %, no unit text.

Value lookup for recovery at 2 h, 5 µM; key = CSc1ccc(OCc2ncc([N+](=O)[O-])n2C)cc1
72

* * *

assay_remarks: Mouse brain concentrations
Format: in vivo
condition_description: female, NMRI, mouse, brain; po 25 mg/kg, 15 min; read-out: Mean plasma:brain ratio (plasma = 1.00)
parameter_measured: Kp at 15 min
Format: numeric value only, no unit, no commentary.

Value lookup for Kp at 15 min; key = CSc1ccc(OCc2ncc([N+](=O)[O-])n2C)cc1 [Fexinidazole]
0.76

* * *

assay_remarks: Hepatocyte intrinsic clearance and metabolite profile
Assay type: in vitro ADME, human
condition_description: human; read-out: CLint in vitro
parameter_measured: hepatocyte CLint at 1 µM (µL/min/1e6 cells)
Field format: number, assumed µL/min/1e6 cells, no unit text.

| compound | hepatocyte CLint at 1 µM [µL/min/1e6 cells] |
| --- | --- |
| CCOc1ccc2ccc(=O)oc2c1 [7-ethoxycoumarin, reference compound] | 108 |

Please find the next compound below.
Value lookup for hepatocyte CLint at 1 µM; key = CSc1ccc(OCc2ncc([N+](=O)[O-])n2C)cc1
107

* * *

assay_remarks: Rat 28-day toxicokinetics
Type: in vivo
condition_description: Sprague-Dawley (Crl:CD (SD)IGS BR), plasma, po, 800 mg/kg/day, Day 28, male, read-out: AUC within 24 hours post dosing
parameter_measured: AUC (µg·h/mL)
Field format: number, assumed µg·h/mL, no unit text.

Value lookup for AUC; key = Cn1c([N+](=O)[O-])cnc1COc1ccc(S(C)(=O)=O)cc1
459

* * *

assay_remarks: Dog 28-day toxicokinetics
Type: in vivo
condition_description: both sexes, beagle, plasma, po, 50 mg/kg/day, 50 mg/kg/day po, day 14
Procedure: In the dog repeated-dose toxicokinetic study, fexinidazole was given orally by gavage once a day for 28 days to five (control and high dose) or three (low and mid dose) beagle dogs/sex/dose at the doses of 0 (control group), 50, 200, or 800 mg/kg/day. The control group received the vehicle alone (same as above). Systemic exposure to fexinidazole and of its sulfoxide and sulfone metabolites was evaluated on days 1, 14 and 28 in the same animals used for the toxicological study. […]
Cmax listing for selected molecules.
Field format: number, assumed ng/mL, no unit text.

Worked set:
| molecule | Cmax [ng/mL] |
| --- | --- |
| Cn1c([N+](=O)[O-])cnc1COc1ccc([S+](C)[O-])cc1 (stereo not drawn) [Fexinidazole sulfoxide] | 2990 |
| Cn1c([N+](=O)[O-])cnc1COc1ccc(S(C)(=O)=O)cc1 | 7780 |

Please find the next molecule below.
Value lookup for Cmax; key = CSc1ccc(OCc2ncc([N+](=O)[O-])n2C)cc1
30

* * *

assay_remarks: Mouse brain concentrations
Assay type: in vivo
condition_description: female, NMRI, mouse, brain; iv 1 mg/kg, 30 min; read-out: Mean plasma:brain ratio (plasma = 1.00)
parameter_measured: Kp at 30 min
Format: numeric value only, no unit, no commentary.

Worked set:
| molecule | parameter_measured | readout_value |
| --- | --- | --- |
| Cn1c([N+](=O)[O-])cnc1COc1ccc([S+](C)[O-])cc1 (stereo not drawn) [Fexinidazole sulfoxide] | Kp at 30 min | 0.064 |
| CSc1ccc(OCc2ncc([N+](=O)[O-])n2C)cc1 | Kp at 30 min | 1.03 |

Please find the next molecule below.
Value lookup for Kp at 30 min; key = Cn1c([N+](=O)[O-])cnc1COc1ccc(S(C)(=O)=O)cc1
0

* * *

assay_remarks: Rat single-dose IV and oral pharmacokinetics
Assay type: in vivo
condition_description: male, Sprague Dawley, plasma, oral, 10 mg/kg, oral 10 mg/kg vs IV 5 mg/kg, read-out: Absolute bioavailability F
parameter_measured: bioavailability (%)
Field format: number, assumed %, no unit text.

Value lookup for bioavailability; key = CSc1ccc(OCc2ncc([N+](=O)[O-])n2C)cc1 [Fexinidazole]
30

* * *

assay_remarks: Hepatocyte intrinsic clearance and metabolite profile
Assay type: in vitro ADME, cynomolgus monkey
condition_description: male, cynomolgus, cynomolgus monkey, cryopreserved hepatocytes; 1 µM
parameter_measured: half-life at 1 µM (min)
Field format: number, assumed min, no unit text.

| compound | half-life at 1 µM [min] |
| --- | --- |
| CSc1ccc(OCc2ncc([N+](=O)[O-])n2C)cc1 | 0.6 |

Please find the next compound below.
Value lookup for half-life at 1 µM; key = CCOc1ccc2ccc(=O)oc2c1 [7-ethoxycoumarin, reference compound]
2.5

* * *

assay_remarks: Dog 28-day toxicokinetics
Type: in vivo
condition_description: both sexes, beagle, plasma, po, 800 mg/kg/day, 800 mg/kg/day po, day 1, read-out: AUC0-t(last)
AUC(0-t) listing for selected molecules.
Field format: number, assumed µg·h/mL, no unit text.

| molecule | readout_value |
| --- | --- |
| Cn1c([N+](=O)[O-])cnc1COc1ccc([S+](C)[O-])cc1 (stereo not drawn) [Fexinidazole sulfoxide] | 112 |
| Cn1c([N+](=O)[O-])cnc1COc1ccc(S(C)(=O)=O)cc1 | 660 |

Please find the next molecule below.
Value lookup for AUC(0-t); key = CSc1ccc(OCc2ncc([N+](=O)[O-])n2C)cc1
0.84

* * *

concentration at 60 min listing for selected molecules.
assay_remarks: Mouse brain concentrations
Type: in vivo
condition_description: female, NMRI, mouse, brain homogenate, oral, 25 mg/kg, fexinidazole 25 mg/kg po, 60 min; read-out: Brain homogenate concentration
Field format: number, assumed ng/mL, no unit text.

Value lookup for concentration at 60 min; key = Cn1c([N+](=O)[O-])cnc1COc1ccc([S+](C)[O-])cc1 (stereo not drawn) [Fexinidazole sulfoxide]
1620

Value lookup for concentration at 60 min; key = CSc1ccc(OCc2ncc([N+](=O)[O-])n2C)cc1
254

Value lookup for concentration at 60 min; key = Cn1c([N+](=O)[O-])cnc1COc1ccc(S(C)(=O)=O)cc1
394

* * *

assay_remarks: Mouse brain concentrations
Type: in vivo
condition_description: female, NMRI, mouse, brain homogenate, oral, 25 mg/kg, fexinidazole 25 mg/kg po, 15 min; read-out: Brain homogenate concentration
parameter_measured: concentration at 15 min
Write your answer as a measured quantity: the number, then the unit.

Value lookup for concentration at 15 min; key = CSc1ccc(OCc2ncc([N+](=O)[O-])n2C)cc1
379 ng/mL

* * *

assay_remarks: Rat 28-day toxicokinetics
Type: in vivo
condition_description: male, Sprague Dawley (Crl:CD (SD)IGS BR), plasma, po, 50 mg/kg/day, Day 28, male, read-out: AUC0-t(last)
parameter_measured: AUC(0-t) (ng·h/mL)
Field format: number, assumed ng·h/mL, no unit text.

| molecule | AUC(0-t) [ng·h/mL] |
| --- | --- |
| CSc1ccc(OCc2ncc([N+](=O)[O-])n2C)cc1 | 889 |

Value lookup for AUC(0-t); key = Cn1c([N+](=O)[O-])cnc1COc1ccc([S+](C)[O-])cc1 (centres unmarked) [Fexinidazole sulfoxide]
30600

* * *

assay_remarks: Hepatocyte intrinsic clearance and metabolite profile
Assay type: in vitro ADME, cynomolgus monkey
condition_description: male, cynomolgus monkey, cryopreserved hepatocytes, 1 µM; read-out: CLint in vitro
parameter_measured: CLint scaled at 1 µM (L/h/kg)
Field format: number, assumed L/h/kg, no unit text.

Value lookup for CLint scaled at 1 µM; key = CSc1ccc(OCc2ncc([N+](=O)[O-])n2C)cc1 [Fexinidazole]
390

* * *

assay_remarks: Hepatocyte intrinsic clearance and metabolite profile
Type: in vitro ADME, dog
condition_description: male, beagle, dog, cryopreserved hepatocytes; 1 µM; read-out: CLint in vitro
parameter_measured: hepatocyte CLint at 1 µM
Write your answer as a measured quantity: the number, then the unit.

| compound | hepatocyte CLint at 1 µM |
| --- | --- |
| CSc1ccc(OCc2ncc([N+](=O)[O-])n2C)cc1 [Fexinidazole] | 656 µL/min/1e6 cells |

Value lookup for hepatocyte CLint at 1 µM; key = CCOc1ccc2ccc(=O)oc2c1 [7-ethoxycoumarin, reference compound]
405 µL/min/1e6 cells

* * *

assay_remarks: Mouse pharmacokinetics after 5-day oral dosing
condition_description: male, NMRI, mouse, plasma, po, 200 mg/kg/day
parameter_measured: AUC(0-t)
Write your answer as a measured quantity: the number, then the unit.

Value lookup for AUC(0-t); key = CSc1ccc(OCc2ncc([N+](=O)[O-])n2C)cc1 [Fexinidazole]
1530 ng·h/mL
